Test system: TAB109
Assay: qHTS profiling for inhibitors of Plasmodium falciparum proliferation (AID 504749); further: nearly all actives have a fitted effect of over 60% in size
Settings: P. falciparum in erythrocytes, SYBR Green DNA, 72 h; series mostly up to 28.7 µM
Protocol: NIH National Institute of Allergy and Infectious Diseases [NIAID] NIH Chemical Genomics Center [NCGC] […] Because mature erythrocytes lack DNA, only Plasmodium-derived DNA is detected. NCGC Assay Protocol Summary: The SYBR Green viability assay was adapted from a method described previously (Plouffe et al., 2008). […] The following morning, fluorescence intensity at 485(14) nm excitation and 535(25) nm emission wavelengths was measured on an EnVision (Perkin Elmer) plate reader. […]
Results filed as inconclusive are left out. Active and inactive are the calls of the source. The call rests on the fitted dose curve; in most records, active means well fitted inhibition curve with a large enough effect; inconclusive means small, poorly fitted or top-dose-only effect; inactive means flat fitted curve, though single readings scatter.
Possible outcomes: Yes = active, No = inactive

{"columns": ["compound", "testedTarget", "assignedCategory"],
 "data": [
  ["CNCCCC12CCC(c3ccccc31)c1ccccc12", "TAB109", "No"],
  ["CC[N+](CC)(CC)CCOc1cccc(OCC[N+](CC)(CC)CC)c1OCC[N+](CC)(CC)CC", "TAB109", "No"],
  ["COc1cc2c(c(OC)c1OC)-c1ccc(OC)c(=O)cc1[C@@H](NC(C)=O)CC2", "TAB109", "No"],
  ["N[C@@H](Cc1c[nH]c2ccc(O)cc12)C(=O)O", "TAB109", "No"],
  ["O=c1c(-c2ccc(O)cc2)coc2cc(O)cc(O)c12", "TAB109", "No"],
  ["Nc1c2c(nc3ccccc13)CCCC2", "TAB109", "Yes"],
  ["CC(C)(C)C(=O)Oc1ccc(S(=O)(=O)Nc2ccccc2C(=O)NCC(=O)O)cc1", "TAB109", "No"],
  ["CC(C)C(=O)Nc1ccc([N+](=O)[O-])c(C(F)(F)F)c1", "TAB109", "No"],
  ["Cn1c(=O)c2[nH]cnc2n(C)c1=O", "TAB109", "No"],
  ["Cc1cn([C@H]2C=C[C@@H](CO)O2)c(=O)[nH]c1=O", "TAB109", "No"],
  ["CC#C[C@]1(O)CC[C@H]2[C@@H]3CCC4=CC(=O)CCC4=C3[C@@H](c3ccc(N(C)C)cc3)C[C@@]21C", "TAB109", "Yes"],
  ["Cc1cnc(C(=O)NCCc2ccc(S(=O)(=O)NC(=O)NC3CCCCC3)cc2)cn1", "TAB109", "No"],
  ["CC(C)Cc1ccc(C(C)C(=O)O)cc1 (stereo unspecified)", "TAB109", "No"],
  ["O=C(c1ccc(F)cc1)C1CCN(CCn2c(=O)[nH]c3ccccc3c2=O)CC1", "TAB109", "No"],
  ["CCC1(c2ccccc2)C(=O)NCNC1=O", "TAB109", "No"],
  ["CC(C)(Oc1ccc(C2CC2(Cl)Cl)cc1)C(=O)O (stereo unspecified)", "TAB109", "No"]
]}

Data origin, for the record: PubChem BioAssay (NCATS)
